Values from the supplement of paper PMC12042874

- assayNotes: amyloid nucleation score (Sup35N fusion, yeast selection) (log enrichment); library NNK2; higher = more nucleation; inactive = no reads after selection;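 note: zero at mode of non-aggregating sequences after 7 days selection at 30°C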
readoutKind: amyloid nucleation score
Respond numerically, and do not add a unit to the figure.

Some substances with known amyloid nucleation score results, for comparison:
substance=FVLNYLI readoutkind="amyloid nucleation score" testvalue=0.709
substance=RFMVSRYFISGPIIVSC readoutkind="amyloid nucleation score" testvalue=0.284
substance=YYQYGWEYARLWLIDNILHG readoutkind="amyloid nucleation score" testvalue=-0.064
substance=RKNSLHTMWMGKMVCSCFKL readoutkind="amyloid nucleation score" testvalue=5.69
substance=DRYSTCSNRKSTRYLFMTFA readoutkind="amyloid nucleation score" testvalue=0.151
substance=GEPSCATCITVCLVLLSTQM readoutkind="amyloid nucleation score" testvalue=6.48
substance=LSILCGDCSDGRS readoutkind="amyloid nucleation score" testvalue=-0.245
substance=QACRSTGNSFVLNRYMKERT readoutkind="amyloid nucleation score" testvalue=0.215

Looking for the measured amyloid nucleation score of RSLDEPSFFIPMPMYWVLGV , can you help?
0.271

Looking for the measured amyloid nucleation score of LSYLHG , can you help?
-0.913

Looking for the measured amyloid nucleation score of TQCRFRTSRVDICKIVKPGS , can you help?
0.177

Looking for the measured amyloid nucleation score of RPQKSSARRIVPFMMFWLGN , can you help?
0.426

Looking for the measured amyloid nucleation score of LYLTYKVVHTSTPPVASYCE , can you help?
5.86

Looking for the measured amyloid nucleation score of SGFTVEESWTLLCRIVSREG , can you help?
1.22

* * *

- assayNotes: amyloid nucleation score (Sup35N fusion, yeast selection) (log enrichment); library NNK3; higher = more nucleation; inactive = no reads after selection
readoutKind: amyloid nucleation score

substance=SLTSSFFSSMDVFNSALKGG testvalue=inactive
substance=RYVAVCSK testvalue=inactive
substance=MILSNISGSRLIGSSNHSAF testvalue=inactive
substance=NTRKHFVSWCAHPDEDSSFM testvalue=inactive
substance=KFLYRCINRLANSLIRELPI testvalue=inactive

Looking for the measured amyloid nucleation score of NAHLRCMTTILGLFQTFGRG , can you help?
2.02

Looking for the measured amyloid nucleation score of QWSGDDTT , can you help?
0.368

Looking for the measured amyloid nucleation score of NVSFILLYGQCSECTQDA , can you help?
2.03

Looking for the measured amyloid nucleation score of SRYRAEIDARYNFLRGFNAC , can you help?
-0.449

Looking for the measured amyloid nucleation score of SGFFMMVYRR , can you help?
-0.364

Looking for the measured amyloid nucleation score of WKRNKRGKV , can you help?
1.4

Looking for the measured amyloid nucleation score of FCATRTKVGLHGYASCEDCG , can you help?
-0.249

Looking for the measured amyloid nucleation score of FNIHSQIAFLFLCGYLESTV , can you help?
1.94

Looking for the measured amyloid nucleation score of SLGSPYRTRGCLNKSPPLAC , can you help?
inactive

Looking for the measured amyloid nucleation score of NYWEIEYGVAGCSFLEGMRH , can you help?
inactive

Looking for the measured amyloid nucleation score of SFLSNCSFPDRSMKAYFIYY , can you help?
0.939

Looking for the measured amyloid nucleation score of RWDFTSDSISRILTPLNVAK , can you help?
0.836

Looking for the measured amyloid nucleation score of FCKMVFLGTAVRCVVKLQSV , can you help?
inactive

Looking for the measured amyloid nucleation score of WNAYVHTNNV , can you help?
inactive

Looking for the measured amyloid nucleation score of HSRRHCFLVSWE , can you help?
inactive

Looking for the measured amyloid nucleation score of KVWCKMLISSFIWMYVSE , can you help?
inactive

Looking for the measured amyloid nucleation score of DNVSKSSIHTTLVLASFLCS , can you help?
1.55

Looking for the measured amyloid nucleation score of SVRWMTGRFVGCRRNQVQFR , can you help?
0.505

Looking for the measured amyloid nucleation score of GRWFVCVQSAWCDCGGDVCV , can you help?
inactive

Looking for the measured amyloid nucleation score of VLLKRL , can you help?
inactive

Looking for the measured amyloid nucleation score of KAQEHPA , can you help?
inactive

Looking for the measured amyloid nucleation score of VPKKEKWRFDIVL , can you help?
inactive

Looking for the measured amyloid nucleation score of SFKQIIDRFTSSFIVIFGLR , can you help?
inactive

* * *

- assayNotes: amyloid nucleation score (Sup35N fusion, yeast selection) (log enrichment); library NNK2; higher = more nucleation; inactive = no reads after selection
Label yes (1) when amyloid nucleation score is at or above 0.5; anything below gets no (0).

The examples below pair each entry with its known result.
substance=EDWNPSTMFVRFWYNSACWY assignedcategory="no (0)"
substance=MFRSVRFVCWSRLIDNRYMQ assignedcategory="no (0)"
substance=FRMNEQSPAEWSRSVYFGGG assignedcategory="no (0)"
substance=SIAKFGWTIGRLGYIHIFIL assignedcategory="no (0)"
substance=NFVNSFRVPISVYKVYLYGG assignedcategory="yes (1)"
substance=TCVVSTYLINIQKNVASFER assignedcategory="yes (1)"
substance=GRSGIFCLPCMLCKFY assignedcategory="yes (1)"
substance=GGSKLVLLFE assignedcategory="no (0)"

# check: amyloid nucleation score of PRVVGGFANISMWLATGTPF is greater than or equal to 0.5
yes (1)

# check: amyloid nucleation score of GLIMVSSVLCTFAGMGDNWA is greater than or equal to 0.5
yes (1)

# check: amyloid nucleation score of IWYLLFMVDLVKCHTMKTNR is greater than or equal to 0.5
yes (1)

# check: amyloid nucleation score of RTLHSLWHNAT is greater than or equal to 0.5
yes (1)

* * *

- assayNotes: amyloid nucleation score (Sup35N fusion, yeast selection) (log enrichment); library NNK3; higher = more nucleation; inactive = no reads after selection
readoutKind: amyloid nucleation score

Some substances with known amyloid nucleation score results, for comparison:
substance=RIWPSGSC testvalue=inactive
substance=LMRNSMLKTCFRSTAFH testvalue=inactive
substance=YWYYGCGSVGFAIRPWMSGI testvalue=1.58
substance=SRILGNRMAFTA testvalue=inactive
substance=ITLLCLFNATL testvalue=1.98
substance=RLVPFTWGHIPG testvalue=inactive
substance=GHCKCGPVGPNKRTAR testvalue=inactive
substance=PAKPGL testvalue=inactive

Looking for the measured amyloid nucleation score of RGYGTSDRIAALMWLSRWFQ , can you help?
inactive

Looking for the measured amyloid nucleation score of LKYSDSSDI , can you help?
0.235

Looking for the measured amyloid nucleation score of EMAEAGTFEGYSLSVSVSAD , can you help?
inactive

Looking for the measured amyloid nucleation score of VDVAVFLEMLYCWCRDGFTR , can you help?
1.79

Looking for the measured amyloid nucleation score of NVPKPGTFFCDKCYYGCVWD , can you help?
0.642

Looking for the measured amyloid nucleation score of RLNLNVIL , can you help?
2.58

Looking for the measured amyloid nucleation score of SCCCDFYTTRKNQRCVHRFR , can you help?
inactive

Looking for the measured amyloid nucleation score of LSLKRHLYLKVDASLTCVRT , can you help?
inactive

Looking for the measured amyloid nucleation score of LYDISGPM , can you help?
inactive

Looking for the measured amyloid nucleation score of GMVNVARRKMSGLR , can you help?
1.09

Looking for the measured amyloid nucleation score of AKQVGLY , can you help?
inactive

* * *

- assayNotes: amyloid nucleation score (Sup35N fusion, yeast selection) (log enrichment); library NNK2; higher = more nucleation; inactive = no reads after selection
Attribute: amyloid nucleation score
Respond numerically, and do not add a unit to the figure.

Some substances with known amyloid nucleation score results, for comparison:
substance=IMIFSLVTMLDVNGTIC testvalue=7.48
substance=DLKVDQSVWRSLDMNALVAN testvalue=1.27
substance=GWLHMYY testvalue=-0.268
substance=VYMFCRGGTHEAYFFHTGLC testvalue=-0.256
substance=HDKVCTSLRVVDQCLRPGH testvalue=0.608
substance=SYYINFISVRILDLNKFNVQ testvalue=5.03

Looking for the measured amyloid nucleation score of NIFRRLLSIIIVFDQDRRKM , can you help?
-1.01

Looking for the measured amyloid nucleation score of RWAFTSFGSCLDKCYKYDYC , can you help?
-0.913

Looking for the measured amyloid nucleation score of RNLCGFGCVTFRSVLL , can you help?
0.279

Looking for the measured amyloid nucleation score of HSRRGGFRKYSSTLARPASD , can you help?
-0.799

Looking for the measured amyloid nucleation score of FHRRMFLCAVWLLRLTIVRQ , can you help?
0.492

* * *

Attribute: amyloid nucleation score
- assayNotes: amyloid nucleation score (Sup35N fusion, yeast selection) (log enrichment); library NNK1; higher = more nucleation; inactive = no reads after selection
Respond numerically, and do not add a unit to the figure.

Looking for the measured amyloid nucleation score of ILILRGNCR , can you help?
-0.165

Looking for the measured amyloid nucleation score of VVGYRRTMGLVEFSLASVSN , can you help?
-0.806

Looking for the measured amyloid nucleation score of GCRPMSFKMSVAVGHLMGDT , can you help?
2.79

Looking for the measured amyloid nucleation score of TWSRNIINFRIFWYTLFQVH , can you help?
0.005

Looking for the measured amyloid nucleation score of EFLMIQIVMGAPGCHKGTRR , can you help?
0.322

Looking for the measured amyloid nucleation score of DSGWRWCNRSTSVGNVNVMR , can you help?
0.171
